These data points were gathered from the supplement of paper PMC10567573.

B1: ZNF449 (parent)
chain: TLHQRTHTEERPFKCNYCGKSFRQ

Variants of: B1
assay notes: protein stability index of a GFP-peptide fusion (GPS, HEK-293T) (PSI 1-6); higher = more stable;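 also: lentivirally expressed fusions sorted by FACS into six bins by GFP to DsRed ratio, PSI derived from sequencing read proportions per bin multiplied by bin number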
experimental setup: c terminus: a fixed tail appended
readout kind: protein stability index
Keep it simple and answer with nothing but the number.

Below are worked cases with known answers.
TLHRRTHTEERPFKCNYCGKSFRQ	3.24
TLHQRTHTEERPFKCNWCGKSFRQ	2.61
TLHQRTHTEERPFKCNYCGKSFHQ	2.79
TLHQRTHTEERPFKCNYFGKSFRQ	2.85

Item under review: "TLHQRTHTEERPIKCNYCGKSFRQ" . Reported protein stability index?
3.01

Can you handle "TLHQMTHTEERPFKCNYCGKSFRQ" next?
1.76

Record: "TLHQPTHTEERPFKCNYCGKSFRQ"
2.12

Also "TLHQRTHTEERPFKCHYCGKSFRQ" ?
1.93

Query "TLHQRTHTEERPFKCNYCGKSSRQ" next
2.85
